- target_or_system: STING (stimulator of interferon genes) (Homo sapiens, UniProt Q86WV6)
- Sequence (Q86WV6 whole entry): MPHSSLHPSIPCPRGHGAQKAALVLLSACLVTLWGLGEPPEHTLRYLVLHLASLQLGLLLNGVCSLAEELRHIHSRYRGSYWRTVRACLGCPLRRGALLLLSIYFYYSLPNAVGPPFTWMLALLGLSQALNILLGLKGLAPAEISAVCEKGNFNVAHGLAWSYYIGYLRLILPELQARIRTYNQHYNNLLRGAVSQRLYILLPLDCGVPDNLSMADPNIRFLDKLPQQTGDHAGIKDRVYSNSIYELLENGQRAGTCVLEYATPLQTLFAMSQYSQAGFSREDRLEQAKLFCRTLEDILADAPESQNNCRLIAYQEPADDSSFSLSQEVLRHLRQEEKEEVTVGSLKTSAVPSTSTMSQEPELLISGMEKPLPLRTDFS
- experiment_description: SPR (Biacore T200); also MST (KD […]) and CA-sepharose pull-down competed by free CA
- Assay type: binding
- Parameters: gene STING1; purified soluble human STING protein (TP308418, OriGene)
endpoint_label: Kd (µM)
Give bare numbers, in µM.

Which Kd value belongs to `CC(C)c1cc2c(c(O)c1O)[C@@]1(C(=O)O)CCCC(C)(C)[C@@H]1CC2` ?
3.17
